tested on: DU-145 prostate; test: NCI tumour cell line growth inhibition, 48 h
reported property: TGI

INSERT INTO assay_data (item_smiles, reported_property, result) VALUES
  ('CN1CCN(Cc2ccc3c(NNC(=O)c4ccccc4)nc4cc(F)ccc4n23)CC1', 'TGI', '> 100 µM'),
  ('O=c1oc2ccc(-c3ccc(F)cc3F)cc2c(=O)n1-c1ccc(Cl)c(C(F)(F)F)c1', 'TGI', '> 100 µM'),
  ('C(=Nc1ccc(-c2nc3ccccc3[nH]2)cc1)c1ccco1', 'TGI', '> 100 µM');

* * *

system: SNB-19 CNS; assay: NCI tumour cell line growth inhibition, 48 h
Attribute: TGI
reported property: TGI

INSERT INTO results (molecule, target_entity, reported_property, result) VALUES
  ('COc1cc(C2C3=C(COC3=O)N(CCO)c3cc4c(cc32)OCO4)cc(OC)c1O (stereo not drawn)', 'SNB-19 CNS', 'TGI', '> 18.8 µM'),
  ('CN1CCN(CCOc2cc(OC3CCOCC3)c3c(Nc4c(Cl)ccc5c4OCO5)ncnc3c2)CC1', 'SNB-19 CNS', 'TGI', '> 100 µM'),
  ('CCn1c(=O)c2nc(SC)sc2n(-c2ccccc2)c1=O', 'SNB-19 CNS', 'TGI', '> 100 µM');

* * *

test system: HS 578T breast; experiment: NCI tumour cell line growth inhibition, 48 h
reported property: TGI

INSERT INTO results (item_smiles, reported_property, result) VALUES
  ('CC[C@H](C)C1=C(O)[N@+]2([O-])Oc3ccc(-c4c(O)c(O)c(-c5ccc(O)cc5)c(OC(C)=O)c4OC(C)=O)cc3O[C@]2([C@@H](C)CC)C(=O)N1O', 'TGI', '> 50 µM'),
  ('Oc1[nH]c2ccccc2c1N=Nc1c(F)c(F)c(F)c(F)c1F', 'TGI', '> 100 µM'),
  ('COc1cc(-n2ccnc2)cc(OC)c1OC', 'TGI', '> 100 µM'),
  ('CC1(C)CC(=O)c2c(nc3c(ccc4ccccc43)c2-c2ccc(NC(=O)CCCCC(=O)Nc3ccc(-c4c5c(nc6c4ccc4ccccc46)CC(C)(C)CC5=O)cc3)cc2)C1', 'TGI', '> 100 µM'),
  ('O=C(NNS(=O)(=O)c1ccccc1)c1cccnc1', 'TGI', '> 100 µM');

* * *

tested on: HCC-2998 colon; test: NCI tumour cell line growth inhibition, 48 h
reported property: TGI

INSERT INTO assay_data (compound, target_entity, reported_property, result) VALUES
  ('OC12c3ccccc3C3CCC4(OCCO4)C3C1c1ccccc12 (stereo not drawn)', 'HCC-2998 colon', 'TGI', '> 100 µM'),
  ('COc1ccc(Cn2cc3c(c2-c2ccccc2)CCc2cnoc2-3)cc1N', 'HCC-2998 colon', 'TGI', '> 100 µM'),
  ('CCn1c2ccccc2c2ccc(C3C(C(=O)OC)=C(C)NC(C)=C3C(=O)OC)cc21', 'HCC-2998 colon', 'TGI', '> 100 µM');

* * *

tested on: SF-268 CNS; experiment: NCI tumour cell line growth inhibition, 48 h
reported property: TGI

INSERT INTO results (molecule, result) VALUES
  ('O=C(Nc1cccc2ccccc12)c1ccccc1', '> 100 µM'),
  ('CN(C(=O)Cc1cc(Cl)c(Cl)cc1NC(=O)CN)[C@H]1CCCC[C@@H]1N1CCCC1', '> 100 µM'),
  ('O=S(=O)(Nc1ccc(F)c(Cl)c1)c1ccc(-c2cnc(C3CC3)o2)cc1', '11.3 µM'),
  ('Cc1ccc2oc3c(c(Br)c(Br)n3C)c(=O)c2c1', '> 100 µM'),
  ('CNC(=O)OC(COC)CN1CCN(c2ccccc2C)CC1 (stereo not given)', '> 10 µM'),
  ('NC(=O)c1c(NC=O)ncn1C1OCC(O)C(O)C1O (stereo not given)', '> 100 µM'),
  ('O=C(C/C(CCC(=O)N(Cc1ccccc1)Cc1ccccc1)=N/Nc1ccc([N+](=O)[O-])cc1[N+](=O)[O-])c1ccccc1', '> 100 µM'),
  ('COc1ccc(N2C(=O)C3c4[nH]c5ccc(F)cc5c4C4CCC(C(C)(C)C)CC4C3C2=O)cc1 (stereo not given)', '> 10 µM'),
  ('N#CN1CC[C@H](C(=O)Nc2cc3cc(C(N)=O)ccc3cn2)C1', '24.3 µM'),
  ('CCOC(=O)C(C)c1nc2ccc(C(F)(F)F)cc2[nH]c1=O (stereo not given)', '> 100 µM'),
  ('Cc1ccc(-c2nc([P+](c3ccccc3)(c3ccccc3)c3ccccc3)c(Nc3ccccc3)o2)cc1', '2.53 µM'),
  ('CC1CN=C(c2cccc(-c3nc(-c4cccc(C5=NCC(C)N5)c4)nc(N(C)C)n3)c2)N1 (stereo not given)', '10.7 µM'),
  ('Nc1nc(N)c2cc(Sc3cccc(C(F)(F)F)c3)ccc2n1', '19 µM'),
  ('COc1ccc(C2C3CCCC(C3=O)C(c3ccc(OC)cc3)N2N=O)cc1 (stereo not given)', '> 100 µM'),
  ('COC1CCC(=O)N1CN(C(C)=O)c1ccc(C)cc1 (stereo not given)', '> 100 µM'),
  ('CC1(C)CCCCCC(C)(CCCO)C1=O (stereo not given)', '> 100 µM'),
  ('NC(=S)N=Nc1c(O)c2ccccc2c2ccccc12', '35.7 µM'),
  ('C=CCCCCOC1C=CC(O)C(CO)O1 (stereo not given)', '> 100 µM'),
  ('CCOC(=O)/C(=C/c1ccc(N(CCC#N)CCC#N)cc1C)NC(=O)/C=C/c1ccccc1', '> 100 µM'),
  ('C[C@]12CCNC(=O)C=C1CC[C@@H]1C2CC[C@@]2(C)C1CC[C@@H]2OC(=O)COc1ccc(N(CCCl)CCCl)cc1 (stereo not given in full)', '23.8 µM');
